target: T1, HLA-DR DRB1*0401 (human); assay: radiolabeled-peptide inhibition, purified HLA-DR; conditions: remark: other sources report otherwise
T1 chain 1: not shown
T1 chain 2: not shown
pIC50: −log10 of the molar value.
The reader will find reported pIC50 values listed item by item below.
Outcome Measure: pIC50

                        binder   val
0  ITGYLYISAWPDSLP [9019.0050]  6.61
1  SDVWSYGVTVWELMT [9019.0089]  5.56
2  CMQIAKGMSYLEDVR [9019.0083]  5.58
3  LQGLPREYVNARHCL [9019.0064]  6.70
4  HRDLAARNVLVKSPN [9019.0085]  6.40
5  ISAVVGILLVVVLGV [9019.0067]  6.38
6  CYGLGMEHLREVRAV [9019.0044]  5.99
